Sourced from ChEMBL document CHEMBL4680282

Procedure text: Displacement of [3H]-MK801 from NMDA receptor in Dunkin-Hartley guinea pig brain homogenate incubated for 45 mins by liquid scintillation spectrometry
Assay type: tissue-based, Cavia porcellus
Attribute measured: pKi
Quick note: pKi values are minus log10 of concentrations in mol/L.

IN: Look up pKi: CNC1(c2ccccc2Cl)CCCCC1=O (stereo unspecified)
OUT: 6.74

====

Tgt: Glutamate NMDA receptor
Procedure text: Displacement of [3H]-MK801 from NMDA receptor in Sprague-Dawley rat brain synaptic membrane incubated for 60 mins by liquid scintillation counting method
Format: cell membranes
Attribute measured: Ki
Number first, unit second: that is the form wanted.

IN: Lab note: need Ki with Glutamate NMDA receptor for entry CNC1(c2ccccc2Cl)CCCCC1=O (stereo unspecified) [KETAMINE] , please look it up.
OUT: 180 nM
